- Subject Of Test: hDcn2^P (PONY domain of human DCUN1D2) (Homo sapiens, UniProt Q6PH85 62-259)
- Sequence (Q6PH85 62-259 limits assumed): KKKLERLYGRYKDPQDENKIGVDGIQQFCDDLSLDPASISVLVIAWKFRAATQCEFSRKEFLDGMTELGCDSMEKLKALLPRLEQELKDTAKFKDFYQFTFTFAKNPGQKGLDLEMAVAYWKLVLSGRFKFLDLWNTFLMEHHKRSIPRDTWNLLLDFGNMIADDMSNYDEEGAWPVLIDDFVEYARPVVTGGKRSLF
- Experimental Details: ITC, peptide titrated into Dcn PONY domain
Positions of bridges follow the written chain, without caps; N, C: chain ends. Non-standard residues stand in square brackets, D forms with d. S5 = C=CCCC[C@](C)(N)C(=O)O; Nle = CCCC[C@H](N)C(=O)O
Here the recorded Kd is given for each entry.
Form entry: value (nM) — number only.

Input Ac-MLKLRQLQKKKQKENENSSSIQPN-NH2 (Synthetic peptide of the N-terminus of yeast Ubc12; also called Acetyl-yUbc12^1-24) [yUbc12^Ac1-24] . Output Kd: 204

Continuing:
Reported Kd ( Ac-MIKLFSLKQQKKEEESAGGTKGSSKK-NH2 (Synthetic peptide of the N-terminus of human Ubc12; also called Acetyl-hUbc12^1-26) [hUbc12^Ac1-26] ) = 735

Form: binder = Ac-[Nle]LKLR[S5]LQK[S5]KQ-NH2 (staple 6-10; SMILES CCCC[C@H](NC(C)=O)C(=O)N[C@@H](CC(C)C)C(=O)N[C@@H](CCCCN)C(=O)N[C@@H](CC(C)C)C(=O)N[C@@H](CCCNC(=N)N)C(=O)N[C@@]1(C)CCCC=CCCC[C@@](C)(C(=O)N[C@@H](CCCCN)C(=O)N[C@@H](CCC(N)=O)C(N)=O)NC(=O)[C@H](CCCCN)NC(=O)[C@H](CCC(N)=O)NC(=O)[C@H](CC(C)C)NC1=O) [yUbc12^Ac1-12 (NorLeu) 6, 10] ; Kd = 75
